Data origin, for the record: ChEMBL document CHEMBL4814029

Molecular target: Programmed cell death protein 1/Programmed cell death 1 ligand 1 (Homo sapiens, UniProt Q15116+Q9NZQ7)
Sequence (Q15116 whole entry): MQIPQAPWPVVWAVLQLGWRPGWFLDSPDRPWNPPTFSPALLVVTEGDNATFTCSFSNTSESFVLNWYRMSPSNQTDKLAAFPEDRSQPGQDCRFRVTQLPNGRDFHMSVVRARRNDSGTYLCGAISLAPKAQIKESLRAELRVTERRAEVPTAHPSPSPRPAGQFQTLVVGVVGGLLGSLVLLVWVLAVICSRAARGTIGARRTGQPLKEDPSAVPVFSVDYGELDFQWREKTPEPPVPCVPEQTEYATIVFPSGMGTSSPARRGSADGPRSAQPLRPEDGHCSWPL
Sequence (Q9NZQ7 whole entry): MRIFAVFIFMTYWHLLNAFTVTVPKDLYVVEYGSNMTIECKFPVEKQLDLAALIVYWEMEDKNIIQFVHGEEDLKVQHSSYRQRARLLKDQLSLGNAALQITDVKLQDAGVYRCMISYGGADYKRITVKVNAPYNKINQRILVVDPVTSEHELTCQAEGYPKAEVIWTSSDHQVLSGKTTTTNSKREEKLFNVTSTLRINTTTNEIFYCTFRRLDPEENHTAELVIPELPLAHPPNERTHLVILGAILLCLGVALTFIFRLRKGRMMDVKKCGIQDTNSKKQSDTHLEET
Assay: Inhibition of Tag2-PD-1/Tag1-PDL-1 (unknown origin) interaction incubated for 15 mins by TR-FRET assay
Format: protein-complex assay
List of pIC50 values.
# pIC50 = -log10(concentration in molar units)

Solved cases below.
1. CC1(O)CCN(Cc2ccc3snc(Nc4cccc(-c5ccc6c(c5)OCCO6)c4Cl)c3c2)C1 (racemic) = 6.75
2. O=C(O)[C@H](CO)NCc1ccc2c(Nc3cccc(-c4cccc5c4CCN5CCCN4CCC(O)C4)c3Cl)nsc2c1 (some centres not stated) = 6.64
3. O=C(O)[C@H](CO)NCc1ccc2c(Nc3cccc(-c4ccc5c(c4)OCCO5)c3Cl)nsc2c1 = 8.07
4. OC1CCCN(Cc2ccc3c(Nc4cccc(-c5ccc6c(c5)OCCO6)c4Cl)nsc3c2)C1 (racemic) = 6.78
5. O=C(O)C[C@H](NCc1ccc2c(Nc3cccc(-c4ccc5c(c4)OCCO5)c3Cl)nsc2c1)C(=O)O = 6.32

// next item, pIC50 requested
Q) Tell me the measured pIC50 of OC1CCN(Cc2ccc3c(Nc4cccc(-c5ccc6c(c5)OCCO6)c4Cl)nsc3c2)C1 (racemic) , please.
A) 7.23

###

This section presents molecules with their documented GI50 at 24 h values.
Assay: Growth inhibition of CHO cells expressing PDL-1/TCRa measured after 24 hrs co-culturing with human Jurkat cells expressing PD-1/NFAT-Luc in presence of compound by Cell Titer-Glo luminescent cell viability assay
Type: cell-based, Cricetulus griseus
Details: chinese hamster

1) Cc1c(COc2cc(OCc3cccc(C#N)c3)c(CN3C[C@H](O)C[C@@H]3C(=O)O)cc2Cl)cccc1-c1ccc2c(c1)OCCO2 = > 30 µM

Q) Reported GI50 at 24 h, molecule O=C(O)[C@H](CO)NCc1ccc2c(Nc3cccc(-c4ccc5c(c4)OCCO5)c3Cl)nsc2c1 : ____
A) > 30 µM

###

Molecular target: Programmed cell death protein 1/Programmed cell death 1 ligand 1 (Homo sapiens, UniProt Q15116+Q9NZQ7)
Experiment: Inhibition of Tag2-PD-1/Tag1-PDL-1 (unknown origin) interaction incubated for 15 mins by TR-FRET assay
Rule: IC50 below 100 nM gives 1, anything at or above gives 0.

1) O=C(O)C1CCCN1Cc1ccc2c(Nc3cccc(-c4ccc5c(c4)OCCO5)c3Cl)nsc2c1 (racemic) = 0

Q) Lab note: IC50 threshold 100 nM. Does this compound come in strictly under it? OC1CCCN(Cc2ccc3snc(Nc4cccc(-c5ccc6c(c5)OCCO6)c4Cl)c3c2)C1 (racemic)
A) 0

Q) In plain terms, does Cc1c(Nc2nsc3cc(CN[C@@H](CO)C(=O)O)ccc23)cccc1-c1ccc2c(c1)OCCO2 come in under 100 nM for IC50?
A) 1

Q) Please let me know if CC(C)[C@H](NCc1ccc2c(Nc3cccc(-c4ccc5c(c4)OCCO5)c3Cl)nsc2c1)C(=O)O shows IC50 below 100 nM.
A) 1

Q) Problem: For the compound O[C@@H]1CCN(Cc2ccc3c(Nc4cccc(-c5ccc6c(c5)OCCO6)c4Cl)nsc3c2)C1 , is IC50 under 100 nM?
A) 0

Q) For O=C(O)CNCc1ccc2c(Nc3cccc(-c4ccc5c(c4)OCCO5)c3Cl)nsc2c1 , is the recorded IC50 below the cut-off of 100 nM?
A) 1

Q) Say whether its IC50 is strictly beneath 100 nM. Entry: OC1CCN(Cc2ccc3c(Nc4cccc(-c5ccc6c(c5)OCCO6)c4Cl)nsc3c2)CC1
A) 0

Q) In plain terms, does O=C(O)[C@H](CO)NCc1ccc2c(Nc3cccc(-c4cccc(O)c4)c3Cl)nsc2c1 come in under 100 nM for IC50?
A) 0

Q) Is 100 nM strictly greater than the compound's reported IC50? compound: O=C(O)CCCCOc1cccc(-c2cccc(Nc3nsc4cc(CN[C@@H](CO)C(=O)O)ccc34)c2Cl)c1
A) 0
